assay: Cytotoxicity against human MCF-10A cells assessed as cell viability incubated for 96 hrs by MTT assay; format: toxicity, cell-based; parameters: concentration or dose not given beside the values; settings: read-out: Activity
viability at 96 h listing for selected compounds.
measurement.kind: viability at 96 h (%)

* COc1cc2c(cc1OC)C(=O)/C(=C/c1cccc(OC)c1Cl)CC2 | 91
* COc1cccc(/C=C2\CN(C)C/C(=C\c3cccc(OC)c3Cl)C2=O)c1Cl | 91
* COc1cc(/C=C2\CCC/C(=C\c3cc(OC)c(OC)c(OC)c3Br)C2=NO)c(Br)c(OC)c1OC | 95
* COc1ccc(/C=C2\CCc3ccccc3C2=O)c(Cl)c1OC | 96
* COc1ccc(/C=C2\CCc3ccc([N+](=O)[O-])cc3\C2=N\O)c(Cl)c1OC | 93
* COc1ccc(/C=C2\CN(C)C/C(=C\c3ccc(OC)c(OC)c3Cl)C2=O)c(Cl)c1OC | 90
* CCN(CC)CCON=C1/C(=C/c2cc(OC)c(OC)c(OC)c2Br)CC(C)C/C1=C\c1cc(OC)c(OC)c(OC)c1Br (centres undefined) | 94
* COc1cccc(/C=C2\CCc3ccccc3C2=O)c1Cl | 92
* COc1ccc(/C=C2\CC(C)C/C(=C\c3ccc(OC)c(OC)c3Cl)C2=O)c(Cl)c1OC (centres undefined) | 94

----------
system: MIA PaCa-2; assay: Antiproliferative activity against human MIA PaCa-2 cells assessed as inhibition of cell growth incubated for 48 hrs by propidium iodide staining based fluorometer assay; assay type: functional; conditions: MIA PaCa-2, 48 h
pIC50: −log10 of the molar value.
Lab note: anything with pIC50 at or over 5 counts as yes (1); the rest go in no (0).

* COc1cc(/C=C2\CCc3ccc([N+](=O)[O-])cc3C2=O)c(Br)c(OC)c1OC | yes (1)
* COc1ccc(/C=C2\CN(C)C/C(=C\c3ccc(OC)c(OC)c3Cl)C2=O)c(Cl)c1OC | yes (1)
* COc1cccc(/C=C2\CN(Cc3ccccc3)C/C(=C\c3cccc(OC)c3Cl)C2=O)c1Cl | no (0)
* CCN(CC)CCO/N=C1\C(=C\c2cc(OC)c(OC)c(OC)c2Br)CCc2ccc([N+](=O)[O-])cc21 | yes (1)
* COc1ccc2c(c1)CC/C(=C\c1cc(OC)c(OC)c(OC)c1Br)C2=O | yes (1)
* COc1cc(/C=C2\CN(C)C/C(=C\c3cc(OC)c(OC)c(OC)c3Br)C2=O)c(Br)c(OC)c1OC | yes (1)

----------
test system: NCI-H460; assay: cells; settings: Homo sapiens, NCI-H460, 48 h
Description: Antiproliferative activity against human NCI-H460 cells assessed as inhibition of cell growth incubated for 48 hrs by propidium iodide staining based fluorometer assay
Friendly reminder: IC50 below 4 µM is 1, at or above is -1.

• COc1cc(/C=C2\CCc3ccc(Cl)cc3C2=O)c(Br)c(OC)c1OC = -1
• COc1cc(/C=C2\CC(C)C/C(=C\c3cc(OC)c(OC)c(OC)c3Br)C2=NO)c(Br)c(OC)c1OC (stereo not given) = 1
• COc1cc(/C=C2\CC(C)C/C(=C\c3cc(OC)c(OC)c(OC)c3Br)C2=O)c(Br)c(OC)c1OC (stereo not given) = 1
• CCN(CC)CCO/N=C1\C(=C\c2cc(OC)c(OC)c(OC)c2Br)CCc2c(OC)ccc(OC)c21 = 1
• COc1cccc(/C=C2\CNC/C(=C\c3cccc(OC)c3Cl)C2=O)c1Cl = -1
• COc1cccc(/C=C2\CCc3ccccc3C2=O)c1Cl = -1
• COc1cccc(/C=C2\CCc3c(OC)ccc(OC)c3C2=O)c1Cl = -1
• COc1ccc(OC)c2c1CC/C(=C\c1ccc(OC)c(OC)c1Cl)C2=O = 1
• COc1ccc2c(c1)CC/C(=C\c1cccc(OC)c1Cl)C2=O = -1
• COc1cc2c(cc1OC)C(=N/O)/C(=C/c1cc(OC)c(OC)c(OC)c1Br)CC2 = 1
